Exercise: state measured chemotaxis index for each of the molecules provided.
System: RNAi-treated eri-1 (mg366) nematodes
Assay: RNAi screening of olfactory receptor genes: chemotaxis assay of RNAi-treated nematodes to odorants
Type: in vivo, Caenorhabditis elegans
Settings: srh-235 RNAi-treated nematodes; low concentration of attractant
Method: The RNAi assay was carried out by performing an RNAi method involving the feeding (feeding RNAi method) of eri-1 (mg366) (19), using an Ahringer library (37). Nine adult eri-1 mutants were placed on an NGM plate containing isopropyl 1-D-1-thiogalactopyranoside (0.19 g/L), ampicillin (60 mg/L), and Escherichia coli (E. coli), and were then cultured for 4 days. […] The z score and a control value in each single test from 2SD were calculated in all days (Table 3) or every day. […]
Numbers only.

Below are 4 molecules. Give each one its chemotaxis index.
1. CCC(=O)C(C)=O
2. CC(C)CCO
3. c1cnccn1
4. CCC(C)=O

OUTPUT:
[0.51, 0.64, 0.73, 0.76]

Value sought for every listed molecule: chemotaxis index.
1. O=Cc1ccccc1
2. Cc1nc(C)c(C)s1

OUTPUT:
1. 0.32
2. 0.58
